Reported growth inhibition values for a set of compounds
- Procedure Details: OD615 S. cerevisiae growth inhibition, permissive medium, pilot counter-assay, permissive growth control for S. cerevisiae lifespan shortening project (AID 705)
- Details: OD615, 24 h, at 10 µM, active compounds read high
Write the answer as a number in %, unit excluded.

Illustrative cases are given below, each with its answer.
INSERT INTO results (compound, data_value) VALUES
  ('O=C(CSc1nnc(-c2cccs2)o1)N1CCCCC1', -2.25),
  ('COc1ccc(OCC(=O)NC2CC(C)(C)NC(C)(C)C2)cc1', 4.15),
  ('Cn1c(NC(=O)c2cc(Cl)ccc2Cl)cc(=O)n(C)c1=O', 4.47),
  ('COc1ccc(S(=O)(=O)N2CCN(c3cccc(C)c3C)CC2)cc1', -16.7);

### Prompt # get_value(readout='growth inhibition', item= CCn1cc(C(=O)NCCCN2CC(C)CC(C)C2)c2cc(OC)c(OC)cc2c1=O (stereo unspecified) )
### Response -15.8

### Prompt # get_value(readout='growth inhibition', item= CCOC(=O)c1c(CC(C)C)csc1NC=O )
### Response -4.46

### Prompt # get_value(readout='growth inhibition', item= CC(C)CC(=O)Nc1ccc(C(=O)COc2ccc(-c3nnco3)cc2)cc1 )
### Response -0.165

###

Reported inhibition values for a set of compounds
- Procedure Details: inhibitors of the yeast RAM network, pilot screen, dse1pr::URA3 reporter, 5-FOA selection (AID 869);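 note: 0% = DMSO wells with no growth and 100% = 10 µM 1-NA-PP1 with full growth; RAM network block rescues cells from 5-FOA so hits raise OD615 growth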
- Details: S. cerevisiae dse1pr::URA3 5-FOA growth, OD615, 2 d; at 10 µM; active compounds read high; strain carries analog-sensitive mutant Cbk1 kinase
Write the answer as a number in %, unit excluded.

### Prompt # get_value(readout='inhibition', item= CSc1nnc(Cn2c(=O)sc3ccccc32)n1CCc1ccccc1 )
### Response 2.35

### Prompt # get_value(readout='inhibition', item= c1cncc(CNc2c3c(nc4nnnn24)CCCC3)c1 )
### Response 0.45

### Prompt # get_value(readout='inhibition', item= Cc1c(C(=O)NCc2cccnc2)sc2nc(-c3ccc(F)cc3)cn12 )
### Response 1.01

### Prompt # get_value(readout='inhibition', item= O=c1cc(O)sc2ccccc12 )
### Response 0.79

### Prompt # get_value(readout='inhibition', item= Cc1c(Cl)cccc1NC(=O)CCN1CCCC(C)C1 (configuration not stated) )
### Response 2.28

### Prompt # get_value(readout='inhibition', item= CSc1nc2c(c(=O)n1-c1ccccc1)SCC2 )
### Response 0.775

### Prompt # get_value(readout='inhibition', item= Cc1cc(Nc2ccc(F)cc2Cl)n2nc(C)nc2n1 )
### Response 1.51

### Prompt # get_value(readout='inhibition', item= Cc1cc(=O)n2[nH]c(C)c(-c3ccc(Cl)cc3)c2n1 )
### Response 2.29

### Prompt # get_value(readout='inhibition', item= Cc1ccc2c(c1)NC(=O)C(CC(=O)O)O2 (configuration not stated) )
### Response 1.48

### Prompt # get_value(readout='inhibition', item= O=C1c2cccc3cccc(c23)C(=O)N1c1nccs1 )
### Response 1.98

### Prompt # get_value(readout='inhibition', item= CCOC(=O)c1[nH]c(C)c(C(=O)NCCN2CCOCC2)c1C )
### Response 0.85

### Prompt # get_value(readout='inhibition', item= CCOC(=O)c1cc(NC(=O)OC)c(C)nc1C )
### Response 0.81
